Tested on: HOP-62
run.description: NCI tumour cell line growth inhibition, 48 h
Where a name gives a salt, the structure may show the parent alone. Calls of active or inactive are those of the source. Cut-off read from the data, not from the text of the source: active = GI50 up to about 1.1 µM and inactive = higher.
Labels: yes (active), no (inactive)

# compound, class.assignment
data = [
    ("CC(C)C[C@H]1C(=O)N2CCC[C@H]2[C@]2(O)O[C@](NC(=O)[C@@H]3C=C4c5cccc6[nH]c(Br)c(c56)C[C@H]4N(C)C3)(C(C)C)C(=O)N12 [BROMOCRIPTINE MESYLATE]", "no"),
    ("c1ccc(-n2cnnc2-c2nsc3ccccc23)cc1", "no"),
    ("CCOC(=O)C(C)c1cc(C2(C)OCCO2)c(C)o1 (configuration not stated)", "no"),
    ("Cc1c(C)c2ccc(OC(C)C(=O)O)cc2oc1=O (configuration not stated)", "no"),
    ("CCOP(=O)(OCC)/C(C#N)=C/c1coc2cc(C)cc(C)c2c1=O", "no"),
    ("CSc1c(C#N)c2n(c3ccccc3[n+]2C)c2ncccc12", "no"),
    ("CN(C)c1ccc2cc3ccc(N(C)C)cc3nc2c1", "no"),
    ("O=C(O)C12CC3CC(CC(F)(C3)C1)C2", "no"),
    ("Cc1c(OCCCOc2ccc3c(=O)cc(-c4ccccc4)oc3c2C)ccc2c(=O)cc(-c3ccccc3)oc12", "no"),
    ("COc1cc(/C=C(\\C#N)C(N)=C(C#N)C#N)cc(O)c1O", "no"),
    ("Cc1ccc(-c2n[nH]c(=O)[nH]2)cc1[N+](=O)[O-]", "no"),
    ("Cn1c(=O)cc(NNc2ccc(Br)cc2)[nH]c1=O", "no"),
    ("COC(=O)c1cc2c(n1S(=O)(=O)c1ccc(C)cc1)C(=O)C(=O)c1[nH]cc(C(=O)OCc3ccccc3)c1-2", "yes"),
    ("Nc1c(/C=C/c2cc3cc(C4=NCCN4)ccc3o2)[nH]c2cc(C3=NCCN3)ccc12", "no"),
    ("C[C@H]1[C@H](C)N(Cc2ccccc2)P(=O)(C(O)/C=C/c2ccccc2)N1Cc1ccccc1 (some centres not stated)", "no"),
    ("Cc1ccccc1NC(=O)CC(=O)NNC(Sc1ccccc1)c1cc(/N=N/c2ccc(Br)cc2)ccc1O (configuration not stated)", "no"),
    ("O=C1C=C(c2c(O)ccc3ccccc23)c2ccccc2C1=O", "no"),
    ("Cc1ccc(S(=O)(=O)O/N=C2\\CCC\\C2=C/c2ccccc2)cc1", "no"),
    ("O=C1[C@H](O)[C@@H]2CCC[C@@]23CCCN13", "no"),
    ("c1cc(C2O[C@H]3CCCN3[C@@H]2c2ccncc2)ccn1 (some centres not stated)", "no"),
    ("CC1(N2CCOCC2)CC2C(=[N+]1[O-])CCC/C2=N/O (configuration not stated)", "no"),
    ("C/C(=N\\NC(N)=S)c1ccc(/C(C)=N/NC(N)=S)cc1", "no"),
    ("CC(=O)c1ccc2c(c1)CC1(C2)Cc2ccccc2C1=O (configuration not stated)", "no"),
    ("O=C(OC1C#CCSCC#C/C=C\\1)c1cnc2ccccc2n1 (configuration not stated)", "no"),
    ("CNC(=S)/N=C(\\N)N(C)C", "no"),
    ("O=[N+]([O-])C(/C(Cl)=C(\\Cl)Br)=C(/Cl)SCc1ccccc1", "no"),
    ("O/N=C(\\CC(O)(C(F)(F)F)C(F)(F)F)c1cccs1", "no"),
    ("O=[N+]([O-])c1ccc2c(/N=N/c3ccc4ccccc4c3O)c(O)cc(S(=O)(=O)O)c2c1", "no"),
    ("CC(C)(Cl)C(Br)CCC(C)(Cl)C(Br)CBr (configuration not stated)", "no"),
    ("CCOC(=O)c1cc([N+](=O)[O-])cc([N+](=O)[O-])c1Sc1[nH]cnc2ncnc1-2", "no"),
    ("COc1ccc(C2COc3cc(OC(C)=O)c(OC(C)=O)cc3C2)cc1 (configuration not stated)", "no"),
    ("NC(=O)NC(=O)Nc1ccc(Br)cc1", "no"),
]

Source: ChEMBL document CHEMBL1201862
